# Assay setup: in propylene glycol, 288.15 K
Measure: solubility (mole fraction)
Output spec: single numeric token, no unit.

Query :: State the recorded solubility (mole fraction) for this entry: Nc1ncnc2nc[nH]c12
Result :: 0.0109

---

# Assay setup: in water, 308.15 K
Measure: solubility (mole fraction)

Query :: If you can, please state the reported solubility (mole fraction) value of Nc1ncnc2nc[nH]c12 .
Result :: 0.000216

---

# Assay setup: in water, 303.15 K
Measure: solubility (mole fraction)
// keep it numeric: no unit symbol after the value

Query :: Look at this compound and give its reported solubility (mole fraction). Nc1ncnc2nc[nH]c12
Result :: 0.000171

---

# Assay setup: in propylene glycol, 313.15 K
Measure: solubility (mole fraction)
The reply should be a number, written without any unit.

Query :: Requested field: solubility (mole fraction). Item: Nc1ncnc2nc[nH]c12
Result :: 0.0117

---

# Assay setup: in DMF, 303.15 K
Measure: solubility (mole fraction)
Reply briefly: the number, and no unit.

Query :: For Nc1ncnc2nc[nH]c12 , what is its reported solubility (mole fraction)?
Result :: 0.00262

---

# Assay setup: in propylene glycol, 303.15 K
Measure: solubility (mole fraction)
Please reply with the value in numeric form only.

Query :: GET /values?readout=solubility (mole fraction)&item= Nc1ncnc2nc[nH]c12
Result :: 0.0114

---

# Assay setup: in DMF, 313.15 K
Measure: solubility (mole fraction)
Give a plain numeric answer without units written out.

Query :: Dear colleague, I am looking for the recorded solubility (mole fraction) of the following compound: Nc1ncnc2nc[nH]c12
Result :: 0.00295

---

# Assay setup: in DMF, 298.15 K
Measure: solubility (mole fraction)

Query :: Which value of solubility (mole fraction) has been reported for Nc1ncnc2nc[nH]c12 in the records?
Result :: 0.00246

---

# Assay setup: in NMP, 313.15 K
Measure: solubility (mole fraction)
Write no unit; give the number alone.

Query :: GET /values?readout=solubility (mole fraction)&item= Nc1ncnc2nc[nH]c12
Result :: 0.0109

---

# Assay setup: in propylene glycol, 283.15 K
Measure: solubility (mole fraction)
Please give the numeric answer without any surrounding text.

Query :: Can you look up the measured solubility (mole fraction) of Nc1ncnc2nc[nH]c12 for me?
Result :: 0.0108

---

# Assay setup: in DMSO, 318.15 K
Measure: solubility (mole fraction)

Query :: Look up solubility (mole fraction) for this compound: Nc1ncnc2nc[nH]c12
Result :: 0.0144

---

# Assay setup: in NMP, 318.15 K
Measure: solubility (mole fraction)
Number only, please.

Query :: Dear colleague, I am looking for the recorded solubility (mole fraction) of the following compound: Nc1ncnc2nc[nH]c12
Result :: 0.0112

---

# Assay setup: in NMP, 288.15 K
Measure: solubility (mole fraction)
# print the numeric value only

Query :: Query (compound): Nc1ncnc2nc[nH]c12 ; field requested: solubility (mole fraction)
Result :: 0.0099

---

# Assay setup: in DMSO, 293.15 K
Measure: solubility (mole fraction)
Form field (numeric): enter value without unit.

Query :: So what's the measured solubility (mole fraction) for this one? Nc1ncnc2nc[nH]c12
Result :: 0.0111

---

# Assay setup: in DMSO, 303.15 K
Measure: solubility (mole fraction)
Note: the reply should be a number with no unit written.

Query :: What value of solubility (mole fraction) has been reported for the following molecule? Nc1ncnc2nc[nH]c12
Result :: 0.0124

Hello, the source for this data is BigSolDB 2.1, in case you need it.
